Data credit: patent US20100196385A1

# study-target: DLL4 extracellular domain (R&D systems, catalog #1506-D4/CF) (UniProt Q9NR61 27-529, limits assumed)
# Sequence (Q9NR61 27-529 limits assumed): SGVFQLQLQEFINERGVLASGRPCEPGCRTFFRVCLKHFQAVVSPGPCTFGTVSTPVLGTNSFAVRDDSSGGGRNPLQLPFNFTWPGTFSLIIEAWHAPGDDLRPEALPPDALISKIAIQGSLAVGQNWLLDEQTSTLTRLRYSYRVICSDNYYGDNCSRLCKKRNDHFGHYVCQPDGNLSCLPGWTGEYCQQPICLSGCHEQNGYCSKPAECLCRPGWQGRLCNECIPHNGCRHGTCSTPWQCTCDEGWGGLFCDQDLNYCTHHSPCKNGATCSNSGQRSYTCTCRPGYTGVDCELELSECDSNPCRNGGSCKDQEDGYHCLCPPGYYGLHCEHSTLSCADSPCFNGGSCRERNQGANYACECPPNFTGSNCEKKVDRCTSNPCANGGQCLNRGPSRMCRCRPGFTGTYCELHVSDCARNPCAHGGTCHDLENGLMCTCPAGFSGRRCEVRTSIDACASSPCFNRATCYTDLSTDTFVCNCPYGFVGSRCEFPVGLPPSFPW
# protocol: cell-based or functional assay
parameter-measured: % inhibition 10 µg/ml, N = 1 (HUVEC proliferation on coated DLL4) (%)
Give a bare numeral; the unit % is implied.

Task item: # lookup: % inhibition 10 µg/ml, N = 1 (HUVEC proliferation on coated DLL4) of 2H10 (antibody, IgG4, V domains shown, Fully human; used for IgG4 rows and where no isotype is printed; also called 2H10 IgG4) VH: QVQLVESGGGVVQPGRSLRLSCAASGFTFSRHGMHWVRQAPGKGLEWVAVVWFDGSNIYYADSVKGRFTISRDNSKNTLYLQMNSLRAEDTAMYYCARDSRIAAADYWGQGTLVTVSS VL: SYELTQPPSVSVSPGQTVSITCSGDKLGDKYVCWYQQKPGQSPVLVIYQESKRPSGIPERFSGSSSGNTATLTISGTQAMDEADYYCQTWDSSLVVFGGGTKLTVL
Reply: 110

Task item: # lookup: % inhibition 10 µg/ml, N = 1 (HUVEC proliferation on coated DLL4) of 1E4 (antibody, IgG2, V domains shown, Fully human; also used where no isotype is printed) VH: QVQLVESGGGVVQPGRSLRLSCAASGFTFSSYGMHWVRQAPGKGLEWVAVTWYDGSNKYYADSVKGRFTISRDNSKNTLYLQMNSLRAEDTAVYYCARENCSSTSCYYTVTTDYYGMDVWGQGTTVTVSS VL: EIVLTQSPGTLSLSPGERATLSCRASQRVSSSYLTWYQQKPGQAPRLLIYGASIRATGIPDRFSGSGSGTDFTLTITRLEPEDFAVYFCQQCYTSPITFGQGTRLDIK
Reply: 81
